Data provenance: ChEMBL document CHEMBL4196177

tested on: Gamma-crystallin C (Homo sapiens), P07315 [G129C]; experiment: Inhibition of gamma-crystallin C G129C mutant (unknown origin)-induced intracellular protein aggregation expressed in human HLE-B3 cells at 0.4 uM incubated for 6 to 8 hrs by fluorescence microscopy relative to untreated control; type: cell-based
Sequence (P07315 whole entry G129C): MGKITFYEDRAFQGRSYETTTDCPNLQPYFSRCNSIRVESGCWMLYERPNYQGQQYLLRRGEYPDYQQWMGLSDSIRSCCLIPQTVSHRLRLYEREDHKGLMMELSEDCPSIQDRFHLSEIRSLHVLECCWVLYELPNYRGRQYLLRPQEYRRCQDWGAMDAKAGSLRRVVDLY
Calls of active or inactive are those of the source. The calls are words filed in the database; no cut-off is given here.
Your answer must be one of the following: active, inactive

Examples with answers:
Line Notation | Cat
C[C@H](CCCC(C)(C)O)[C@H]1CC[C@@]2(C)C3=C(CC[C@]12C)[C@@]1(C)C[C@@H](F)[C@@H](O)C(C)(C)[C@@H]1CC3 | active
C[C@H](CCCC(C)(C)O)[C@H]1CC[C@@]2(C)[C@@]34CC[C@H]5C(C)(C)/C(=N/O)CC[C@]5(C)[C@]3(CC[C@]12C)O4 | inactive
C[C@H](CCCC(C)(C)O)[C@H]1CC[C@@]2(C)C3=CC[C@H]4C(C)(C)[C@@H](O)CC[C@]4(C)C3=CC[C@]12C | active
C[C@H](CCCC(C)(C)O)[C@H]1CC[C@@]2(C)C3=C(CC[C@]12C)[C@@]1(C)C[C@@H](F)[C@H](O)C(C)(C)[C@@H]1CC3 | active
C[C@H](CCCC(C)(C)O)[C@H]1CC[C@@]2(C)C3=C(CC[C@]12C)[C@@]1(C)CCC(=O)C(C)(C)[C@@H]1CC3 | active

Okay, next one:
Query: Answer briefly: the call reported for C[C@H](CCCC(C)(C)O)[C@H]1CC[C@@]2(C)C3=C(CC[C@]12C)[C@@]1(C)CC[C@H](O)C(C)(C)[C@@H]1CC3 in this assay.
Reply: active

* * *

tested on: Gamma-crystallin D (Homo sapiens), P07320 [W43R]; experiment: Inhibition of gamma-crystallin D W43R mutant (unknown origin)-induced intracellular protein aggregation expressed in human HLE-B3 cells at 4 uM incubated for 6 to 8 hrs by fluorescence microscopy relative to untreated control; assay type: cell-based
Sequence (P07320 whole entry W43R): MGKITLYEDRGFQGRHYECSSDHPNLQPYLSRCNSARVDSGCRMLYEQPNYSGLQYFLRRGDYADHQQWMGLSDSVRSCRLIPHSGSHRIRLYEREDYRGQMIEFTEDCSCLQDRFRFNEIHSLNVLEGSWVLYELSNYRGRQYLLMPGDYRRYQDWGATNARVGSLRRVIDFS
The source made the active and inactive calls. The calls are words filed in the database; no cut-off is given here.
Your answer must be one of the following: TRUE = active, FALSE = inactive

Examples with answers:
Line Notation | Target Or Test System | Cat
C[C@H](CCCC(C)(C)O)[C@H]1CC[C@@]2(C)C3=C(CC[C@]12C)[C@@]1(C)CCC(=O)C(C)(C)[C@@H]1CC3 | Gamma-crystallin D (Homo sapiens), P07320 [W43R] | TRUE
C[C@H](CCCC(C)(C)O)[C@H]1CC[C@@]2(C)C3=CC[C@H]4C(C)(C)[C@@H](O)CC[C@]4(C)C3=CC[C@]12C | Gamma-crystallin D (Homo sapiens), P07320 [W43R] | TRUE

Query: Answer briefly: the call reported for C[C@H](CCCC(C)(C)O)[C@H]1CC[C@@]2(C)C3=C(CC[C@]12C)[C@@]1(C)C[C@@H](F)[C@H](O)C(C)(C)[C@@H]1CC3 in this assay.
Reply: TRUE

Query: Answer briefly: the call reported for C[C@H](CCCC(C)(C)O)[C@H]1CC[C@@]2(C)C3=C(CC[C@]12C)[C@@]1(C)CC[C@H](O)C(C)(C)[C@@H]1CC3 in this assay.
Reply: TRUE

Query: Answer briefly: the call reported for C[C@H](CCCC(C)(C)O)[C@H]1CC[C@@]2(C)[C@@]34CC[C@H]5C(C)(C)/C(=N/O)CC[C@]5(C)[C@]3(CC[C@]12C)O4 in this assay.
Reply: FALSE

Query: Answer briefly: the call reported for C[C@H](CCCC(C)(C)O)[C@H]1CC[C@@]2(C)C3=C(CC[C@]12C)[C@@]1(C)C[C@@H](F)[C@@H](O)C(C)(C)[C@@H]1CC3 in this assay.
Reply: TRUE
